- assay.remarks: MDCK-MDR1 permeability assay
- Format: in vitro ADME
- experimental.conditions: MDCK-MDR1, pH 7.4; @ 5 μM, with P-gp inhibitor elacridar (2 μM); read-out: MDCK-MDR1 P^eapp(A-B)
test.readout: Papp A→B
Dear colleague, please send the value followed by its unit.

Assign Papp A→B to the following record: C[C@@H](O)c1nc2cnc3[nH]ccc3c2n1[C@H]1CC[C@H](CC#N)CC1
2.5 ×10⁻⁶ cm/s
